Ref: patent US20210388105A1

# system.name: T1, KW27-6 (human CD39 mutant, C-terminal EGFP) (human, UniProt P49961 1-510)
# T1 construct: expressed on HEK293F cells; not shown: C-terminal EGFP fusion (vector pCMV3-GFPSpark)
# T1 chain: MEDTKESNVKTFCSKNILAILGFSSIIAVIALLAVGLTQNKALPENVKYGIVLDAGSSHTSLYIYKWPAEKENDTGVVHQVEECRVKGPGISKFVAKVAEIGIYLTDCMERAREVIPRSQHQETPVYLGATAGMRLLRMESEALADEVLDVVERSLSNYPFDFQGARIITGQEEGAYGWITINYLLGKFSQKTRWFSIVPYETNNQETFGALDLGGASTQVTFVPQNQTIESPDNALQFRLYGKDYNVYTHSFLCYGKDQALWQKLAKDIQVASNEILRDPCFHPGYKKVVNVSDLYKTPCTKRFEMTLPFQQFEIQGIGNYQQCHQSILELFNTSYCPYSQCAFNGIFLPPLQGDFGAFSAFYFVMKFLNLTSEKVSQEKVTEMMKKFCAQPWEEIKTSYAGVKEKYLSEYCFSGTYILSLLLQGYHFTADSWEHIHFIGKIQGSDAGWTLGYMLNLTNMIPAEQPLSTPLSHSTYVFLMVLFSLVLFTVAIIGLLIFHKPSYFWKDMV
# assay: FACS on transfected HEK293F cells, relative binding = AlexaFluor647 / GFP
measured.quantity: binding result

c34 (antibody, V domains shown, its making is not described; also called chimeric antibody c34) VH: EIQVQQSGPELVKPGASVKVSCKASGYSFTDYNMYWVKQSHGKSLEWIGFIDPYNGYTSYNQKFKGKATLTIDKSSSTAFMHLNSLTSEDSAVYYCAIYGYDDAYYFDYWGQGTTLTVSS VL: QIVLTQSPAIMSASPGEKVTITCSATSSVSYMHWFRQKPGTSPKLWIYSTSNLASGVPARFSGSGSGTSYSLTISRMAAEDAATYYCQQRITYPFTFGSGTKLEIT ... binds
c35 (antibody, V domains shown, its making is not described; also called chimeric antibody c35) VH: EVRLQQSGAELVKPGASVKLSCTASGFNIEDTYVHWMKQRPEQGLEWIGRIDPAIDNSKYDPKFQGKATITAVSSSNTAYLQLSSLTSEDTAVYYCALYDGYNVYAMDYWGQGTSVTVSS VL: DIVMTQAAFSNPVTLGTSASISCRSSKNLLHSNGITYLYWYLQRPGQSPQLLIYRASTLASGVPNRFSGSESGTDFTLRISRVEAEDVGVYYCAQLLELPHTFGGGTKLEIK ... binds
Antibody 9-8B (antibody, V domains shown) VH: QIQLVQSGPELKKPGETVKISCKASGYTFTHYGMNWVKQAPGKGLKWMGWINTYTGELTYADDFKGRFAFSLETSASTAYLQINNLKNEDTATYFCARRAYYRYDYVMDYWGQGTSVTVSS VL: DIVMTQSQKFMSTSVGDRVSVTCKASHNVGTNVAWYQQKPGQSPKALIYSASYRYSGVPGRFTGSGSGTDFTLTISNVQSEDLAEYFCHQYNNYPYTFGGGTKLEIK ... no binding
hu23.H5L5 (antibody, V domains shown, humanized c23) VH: QVQLVQSGAEVKKPGASVKVSCKASGYNLKDTFLHWVRQAPGQGLEWMGRIDPANGNIKYDPKFQGRVTITADTSANTAYMELISLRSEDTAVYYCANSPYYYGSGYRIFDVWGQGTTVTVSS VL: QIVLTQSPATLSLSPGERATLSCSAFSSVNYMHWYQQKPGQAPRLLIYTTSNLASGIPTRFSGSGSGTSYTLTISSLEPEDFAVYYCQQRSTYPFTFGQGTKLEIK ... no binding
